- assayed target: human salivary α-amylase (HSA) (Homo sapiens, UniProt P0DUB6)
- Sequence (P0DUB6 16-511): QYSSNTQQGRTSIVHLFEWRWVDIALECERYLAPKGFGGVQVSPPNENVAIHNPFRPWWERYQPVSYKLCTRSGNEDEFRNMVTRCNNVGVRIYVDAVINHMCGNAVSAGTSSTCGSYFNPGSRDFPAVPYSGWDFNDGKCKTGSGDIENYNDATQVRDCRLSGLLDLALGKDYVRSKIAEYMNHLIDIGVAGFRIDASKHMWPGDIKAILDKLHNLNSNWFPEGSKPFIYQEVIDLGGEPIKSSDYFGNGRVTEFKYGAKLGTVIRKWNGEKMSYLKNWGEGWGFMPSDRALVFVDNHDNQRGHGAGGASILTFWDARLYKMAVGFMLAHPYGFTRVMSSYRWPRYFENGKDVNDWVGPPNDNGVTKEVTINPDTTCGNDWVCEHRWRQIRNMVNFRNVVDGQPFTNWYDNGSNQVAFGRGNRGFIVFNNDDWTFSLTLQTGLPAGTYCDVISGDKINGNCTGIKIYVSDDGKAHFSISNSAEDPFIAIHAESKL
- run description: Hydrolysis rate of substrates by α-amylase (relative to G5P)
- Type: biochemical
- experimental context: substrate 1.0 mM, pH 7, value of G5P taken as 1
- From the text: […]
measured metric: hydrolysis rate (relative value)

[
  {
    "compound": "O=[N+]([O-])c1ccc(O[C@H]2O[C@H](CO)[C@@H](O[C@H]3O[C@H](CO)[C@@H](O[C@H]4O[C@H](CO)[C@@H](O[C@H]5O[C@H](CO)[C@@H](O[C@H]6O[C@H](CO)[C@@H](O[C@H]7O[C@H](COCc8ccccc8)[C@@H](O)[C@H](O)[C@H]7O)[C@H](O)[C@H]6O)[C@H](O)[C@H]5O)[C@H](O)[C@H]4O)[C@H](O)[C@H]3O)[C@H](O)[C@H]2O)cc1",
    "result": 1.4
  },
  {
    "compound": "O=[N+]([O-])c1ccc(O[C@H]2O[C@H](CO)[C@@H](O[C@H]3O[C@H](CO)[C@@H](O[C@H]4O[C@H](CO)[C@@H](O[C@H]5O[C@H](COCc6ccccc6)[C@@H](O)[C@H](O)[C@H]5O)[C@H](O)[C@H]4O)[C@H](O)[C@H]3O)[C@H](O)[C@H]2O)cc1",
    "result": 0.60
  },
  {
    "compound": "O=[N+]([O-])c1ccc(O[C@H]2O[C@H](CO)[C@@H](O[C@H]3O[C@H](CO)[C@@H](O[C@H]4O[C@H](CO)[C@@H](O[C@H]5O[C@H](CO)[C@@H](O[C@H]6O[C@H](CO)[C@@H](O)[C@H](O)[C@H]6O)[C@H](O)[C@H]5O)[C@H](O)[C@H]4O)[C@H](O)[C@H]3O)[C@H](O)[C@H]2O)cc1 [Substrate G5P]",
    "result": 1.0
  },
  {
    "compound": "O=[N+]([O-])c1ccc(O[C@H]2O[C@H](CO)[C@@H](O[C@H]3O[C@H](CO)[C@@H](O[C@H]4O[C@H](CO)[C@@H](O[C@H]5O[C@H](CO)[C@@H](O[C@H]6O[C@H](CO)[C@@H](O[C@H]7O[C@H](CO)[C@@H](O[C@H]8O[C@H](CO)[C@@H](O)[C@H](O)[C@H]8O)[C@H](O)[C@H]7O)[C@H](O)[C@H]6O)[C@H](O)[C@H]5O)[C@H](O)[C@H]4O)[C@H](O)[C@H]3O)[C@H](O)[C@H]2O)cc1 [Substrate G7P]",
    "result": 1.8
  },
  {
    "compound": "O=[N+]([O-])c1ccc(O[C@H]2O[C@H](CO)[C@@H](O[C@H]3O[C@H](CO)[C@@H](O[C@H]4O[C@H](CO)[C@@H](O[C@H]5O[C@H](CO)[C@@H](O[C@H]6O[C@H](COCc7ccccc7)[C@@H](O)[C@H](O)[C@H]6O)[C@H](O)[C@H]5O)[C@H](O)[C@H]4O)[C@H](O)[C@H]3O)[C@H](O)[C@H]2O)cc1",
    "result": 1.4
  },
  {
    "compound": "O=[N+]([O-])c1ccc(O[C@H]2O[C@H](CO)[C@@H](O[C@H]3O[C@H](CO)[C@@H](O[C@H]4O[C@H](CO)[C@@H](O[C@H]5O[C@H](CO)[C@@H](O)[C@H](O)[C@H]5O)[C@H](O)[C@H]4O)[C@H](O)[C@H]3O)[C@H](O)[C@H]2O)cc1 [Substrate G4P]",
    "result": 0.75
  }
]
